Molecular target: Human DOR (Homo sapiens)
Construct: expressed in transfected cells; host or cells: HEK-293T
Sequence (P41143 whole entry): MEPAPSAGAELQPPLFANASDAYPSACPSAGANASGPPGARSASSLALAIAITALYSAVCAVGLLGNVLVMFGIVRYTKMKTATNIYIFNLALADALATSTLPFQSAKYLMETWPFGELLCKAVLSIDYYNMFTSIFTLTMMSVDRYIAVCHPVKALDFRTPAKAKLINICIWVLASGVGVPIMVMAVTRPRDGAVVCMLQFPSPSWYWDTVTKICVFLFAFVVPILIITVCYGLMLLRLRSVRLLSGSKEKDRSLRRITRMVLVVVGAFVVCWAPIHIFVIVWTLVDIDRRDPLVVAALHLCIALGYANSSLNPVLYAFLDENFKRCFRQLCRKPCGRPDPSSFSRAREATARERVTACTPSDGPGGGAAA
Experiment: cell-based
Settings: EC50 at indicated opioid receptor, Human DOR
pEC50: −log10 of the molar value.
METRIC: pEC50

Below are worked cases with known answers.
>>> obs_value("CCC1CC2CC3c4sc5ccc(OC)cc5c4CCN(C2)C13 (stereo not drawn) [Compound 34r]")
"< 4.00"
>>> obs_value("CCC1CC2CC3c4oc5cc(F)c(O)cc5c4CCN(C2)C13 (stereo not drawn) [Compound 35k]")
"> 5.00"
>>> obs_value("CCC1CC2CC3c4oc5ccc(O)cc5c4CCN(C2)C13 (stereo not drawn) [Compound 35a]")
"> 5.00"
>>> obs_value("COc1ccc2oc3c(c2c1)CCN1CC2CCC1C3C2 (stereo not drawn) [Compound 34h]")
"< 4.00"
>>> obs_value("CCC1(CC)CC2CC3c4oc5ccc(O)cc5c4C[C@@H](C)N(C2)C31 (stereo partly drawn) [α-endo-52f]")
"< 4.00"
>>> obs_value("CCC1CC2CC3c4oc5ccc(F)cc5c4CCN(C2)C13 (stereo not drawn) [Compound 34j]")
"< 4.00"
>>> obs_value("CCCCC1CC2CC3c4oc5ccc(O)cc5c4CCN(C2)C13 (stereo not drawn) [Compound 35h]")
"> 5.00"
>>> obs_value("CCC1CC2CC3c4oc5ccc(O)cc5c4C[C@H](C)N(C2)C13 (single isomer, unassigned) [α-exo-52f]")
"< 4.00"

stdin: Report measured pEC50 on Human DOR (Homo sapiens); entry: CCCC1CC2CC3c4oc5ccc(OC)cc5c4CCN(C2)C13 (stereo not drawn) [Compound 34e]
stdout: < 4.00

* * *

The reader will find reported pEC50 values listed item by item below.
Biological target: Human KOR (Homo sapiens)
Construct: expressed in transfected cells; host or cells: HEK-293T
Sequence (P41145 whole entry): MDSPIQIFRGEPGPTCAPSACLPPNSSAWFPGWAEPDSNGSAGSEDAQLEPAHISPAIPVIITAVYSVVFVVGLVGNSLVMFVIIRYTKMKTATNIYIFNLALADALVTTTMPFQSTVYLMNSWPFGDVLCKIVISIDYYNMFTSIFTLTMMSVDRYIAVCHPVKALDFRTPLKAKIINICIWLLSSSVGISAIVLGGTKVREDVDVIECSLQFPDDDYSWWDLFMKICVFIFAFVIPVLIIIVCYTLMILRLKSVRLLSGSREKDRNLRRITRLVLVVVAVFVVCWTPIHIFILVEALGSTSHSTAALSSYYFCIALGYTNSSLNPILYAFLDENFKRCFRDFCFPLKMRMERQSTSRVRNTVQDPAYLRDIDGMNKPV
Test: cell-based
Conditions: EC50, Human KOR
pEC50: −log10 of the molar value.

>>> obs_value("OCC1CC2CC3c4oc5ccc(O)cc5c4CCN(C2)C13 (stereo not drawn) [Compound 60g]")
"> 5.00"
>>> obs_value("CC[C@@H]1Cc2c(oc3ccc(O)cc23)C2CC3CCC2N1C3 (stereo partly drawn) [α-endo-60f]")
"< 5.00"
>>> obs_value("CCC1CC2CC3c4oc5cc(C)c(OC)cc5c4CCN(C2)C13 (stereo not drawn) [Compound 51c]")
"< 5.00"
>>> obs_value("CCC1CC2(C)CC3c4oc5ccc(O)cc5c4CCN(C2)C13 (single isomer, unassigned) [Compound 60c]")
"> 5.00"
>>> obs_value("CC[C@H]1Cc2c(oc3ccc(O)cc23)C2CC3CCC2N1C3 (stereo partly drawn) [α-exo-60f]")
"> 5.00"

stdin: Tell us which pEC50 value is on record for Oc1ccc2oc3c(c2c1)CCN1CC2CC(Cc4ccccc4)C1C3C2 (stereo not drawn) [Compound 60h]
stdout: < 5.00

stdin: Tell us which pEC50 value is on record for CC1C2CCC3C(C2)c2oc4ccc(O)cc4c2CCN13 (stereo not drawn) [Compound 60d]
stdout: > 5.00

stdin: Tell us which pEC50 value is on record for CCC1CC2CC3c4oc5cccc(OC)c5c4CCN(C2)C13 (stereo not drawn) [Compound 51b]
stdout: < 5.00

stdin: Tell us which pEC50 value is on record for COCC1CC2CC3c4oc5ccc(OC)cc5c4CCN(C2)C13 (stereo not drawn) [Compound 59g]
stdout: > 5.00
